Data credit: the RNAGym collection of RNA variant scans (doi:10.1073/pnas.2313332121)

B1: TPR t1 (parent)
chain: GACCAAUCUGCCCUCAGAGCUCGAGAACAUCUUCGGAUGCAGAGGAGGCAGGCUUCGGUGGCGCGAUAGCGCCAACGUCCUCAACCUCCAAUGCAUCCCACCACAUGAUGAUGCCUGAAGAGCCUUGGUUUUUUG

# Variants of: B1
# method-summary: polymerase ribozyme fitness, log enrichment relative to wild type (log ratio); higher = more active; in vitro selection for triplet polymerase activity
Use met when the recorded polymerase ribozyme fitness (log ratio) is no lower than -2; use not met when it is lower.

Inquiry: I'd appreciate it if you could say whether GACCAAUCUGCCCUCAGAGCUCGAGAACAUCUUCGGAUGCUGAGGAGGCAGGCUUCGGUGGCGCGAUAGCGCCAACGUCCUCAACCUCCAAUGCAUCCCACCACAUGAUGGUGCCUGAAGAGCCUUGGUUUUUUG [A41U A111G] has polymerase ribozyme fitness (log ratio) at least equal to -2.
Reply text: met

Inquiry: I'd appreciate it if you could say whether GACCAAUCUGCCCUCAGAGCUCGAGAACAUCUUCGGAUGCAGAGGAGGCAGGCUUCGGUCGCGCGAUAGCGCCAAUGUCCUCAACCUCCAAUGCAUCCCACCACAUGAUGAUGCCUGAAGAGCCUUGGUUUUUUG [G60C C76U] has polymerase ribozyme fitness (log ratio) at least equal to -2.
Reply text: not met

Inquiry: I'd appreciate it if you could say whether GACCAAUCUGCCCUCAUAGCUCGAGAACAUCUUCGGAUGCAGAGGAGGCAGGCUUCGGUGGCGCGAUAGCGCCUACGUCCUCAACCUCCAAUGCAUCCCACCACAUGAUGAUGCCUGAAGAGCCUUGGUUUUUUG [G17U A74U] has polymerase ribozyme fitness (log ratio) at least equal to -2.
Reply text: not met

Inquiry: I'd appreciate it if you could say whether GACCAAUCUGCCCUCAGAGCUCGAGAACAUCUUCGGAUGCAAAGGAGGCAGGCUUAGGUGGCGCGAUAGCGCCAACGUCCUCAACCUCCAAUGCAUCCCACCACAUGAUGAAGCCUGAAAAGCCUUGGUUUUUUG [G42A C56A U112A G120A] has polymerase ribozyme fitness (log ratio) at least equal to -2.
Reply text: not met

Inquiry: I'd appreciate it if you could say whether GACCUAUCUGCCCUCAGAGCUCGAGAAGAUCUUCGGAUGCAGAGGAGGCAGGCUUCGGUGGCGCGAUAGCGCCAACGUCCUCAACCUCCAAUGCAACCCACCACAUGAUGAUGUCUGAAGAGCCUUGGUUUUUUG [A5U C28G U96A C114U] has polymerase ribozyme fitness (log ratio) at least equal to -2.
Reply text: not met

Inquiry: I'd appreciate it if you could say whether GACCAAUCUGCCCUCAGAGCUCGAGAACAUCUUCGGAUGCAGAGGAGGCAAGCUUCGGUGGCGCGAUAGCGCCAACGUCCUCAACCUCCAAUGCCUCCCACCACAUGAUGAUGCCUGAAGAGCCUUGGUUUUUUG [G51A A95C] has polymerase ribozyme fitness (log ratio) at least equal to -2.
Reply text: not met

Inquiry: I'd appreciate it if you could say whether GACCAAUCUGCCCUCAGAGCUCGAGAACAUCUUCGGAUGCAGAGGUGGCAGGCUUCGGUGGCGCGAUAGCGCCAACAUCCUCAACCUCCAAUGCAUCCCACCACAUGAUGAUGCCUGAAGAGACUUGGAUUUUUG [A46U G77A C123A U129A] has polymerase ribozyme fitness (log ratio) at least equal to -2.
Reply text: not met

Inquiry: I'd appreciate it if you could say whether GACCAAUCUGCCCUCAGAGCUCGAGAUCAUCUUCGGAUGCAGAGGAGGCAGGCUUCGGUGGCGCGAUAGCGUCAACGUCCUCAAGCUCCAAUGCAUCCCACCACAUGAUGUUGCCUGAAGAGCCUUGGUUUAUUG [A27U C72U C85G A111U U132A] has polymerase ribozyme fitness (log ratio) at least equal to -2.
Reply text: not met

Inquiry: I'd appreciate it if you could say whether GACCAAUAUGCCCUCAGAGCUCGAGAACAUCUUCGGAUGCAGAGGAGGCAGGCUUAGGUGGCGCGAUAGCGCCAACGUCCUCAACCUCCAAUGCAUCCCACAUCAUGAUGAUGCCUGAAGAGCCUUGGUUUUUUG [C8A C56A C102A A103U] has polymerase ribozyme fitness (log ratio) at least equal to -2.
Reply text: not met

Inquiry: I'd appreciate it if you could say whether GACCAAUCUGCCCUCAGAGCUCGAGAACAUCUUCGGAUGCAGAGGAGGCAGGCUUCGGUGGCGUGAUAGCGCUAACGUCCUUAACCUCCAAUGCAUCCCACCACAUGAUGAUGCCUGAAGAGCCUUGGUUUUUUG [C64U C73U C82U] has polymerase ribozyme fitness (log ratio) at least equal to -2.
Reply text: met

Inquiry: I'd appreciate it if you could say whether GACCAAUGUGCCCUCAGAGCUCGAGAACAUCUUCGGAUGCAGAGGAGGCAGGCUUCGGUGGCGCGAUAGCGCCAACGUCCUCAACCCCCAAUGCAUCCCACCACCUGAUGAUGCCUGAAGAGCGUUGGUUUUUUG [C8G U87C A105C C124G] has polymerase ribozyme fitness (log ratio) at least equal to -2.
Reply text: met

Inquiry: I'd appreciate it if you could say whether GACCAAUCUGCCCUCAGAGCUCGAGAAAAUCUUCGGAUGCAGAGGAGGCAUGCUUCGGUCGCGCGAUAGCGCCAACGUCUUCAACCUCCAAUGCAUCCCACCACAUGAUUAUGCCUAAAGAGCCUUGGUUUUUUG [C28A G51U G60C C80U G110U G117A] has polymerase ribozyme fitness (log ratio) at least equal to -2.
Reply text: not met

Inquiry: I'd appreciate it if you could say whether GACCAAUCUGCACUCAGAGCUCGAGAACAUCUUCGGAUGCAGAGGAGGCAGGCUUCGGUGGCGCGAUAGCGCCAACGUCCUCAACCUCCAAUGCAUCCCACCACAUGAUGACGCCUGAAGAGCCUUGGUUUUUUG [C12A U112C] has polymerase ribozyme fitness (log ratio) at least equal to -2.
Reply text: met

Inquiry: I'd appreciate it if you could say whether GACCAAUCUGCCCUCAGAGCUCGAGAACAUCUUCGGAUGCAGAGGAGGCAGGCUUCGGUGGCGCGAUAGCGCCAACGUUCUAAACCACCAAUGCAUCCCACCACAUGAUCAUGCCUGAAGAGCCUUGGUUUUUUG [C79U C82A U87A G110C] has polymerase ribozyme fitness (log ratio) at least equal to -2.
Reply text: not met

Inquiry: I'd appreciate it if you could say whether GACUAAUCUGCCCUCAGAGCUCGAGAACAUCUUCGGAGGCAGAGGAGGCAGGCUUCGGUGGCGCGAUAGCGCCAACGUCCUCAACCUCCAAUGCAUCCCACCACAUGAUGAUGCCUGAAGAGCCUUGGUUUUUUG [C4U U38G] has polymerase ribozyme fitness (log ratio) at least equal to -2.
Reply text: met

Inquiry: I'd appreciate it if you could say whether GACCAAUCUGCACUCAGAGCUCGAGAACAUCUUCGGAUGCAGAGGAGGCAGGCUUCGGUCGCGCGAUAGCGCCAACGUCCUCAACCUCCAAUGCAUCCCACCACAGGAUGAUGCCUGAAGAGCCUUGGUUUUUUG [C12A G60C U106G] has polymerase ribozyme fitness (log ratio) at least equal to -2.
Reply text: not met

Inquiry: I'd appreciate it if you could say whether GACCAAUCUGCCCUCAGAGCUCGAGAACAUCUUCGGAUGCAGAGGAGGCAGGCUUCGGUGGCGCGAUAGCCCCAACGUCCUCUACCUCCAAUGCAUCCCACCACAUGAUGAUGCCUGAAGAGCCUUGGUUUUUUG [G71C A83U] has polymerase ribozyme fitness (log ratio) at least equal to -2.
Reply text: met

Inquiry: I'd appreciate it if you could say whether GACCAAUCUGCCCUCAGAGCUCGAGAACAUCUUCGGAUGCAGAGGAGGCAGGCUUCGGUGGCGCGAUAGCGCCAACGUCCUCAACCUCCAAUGCAUUCCACCACAUGAUGAUCCCUGAAGAGCCUUGGUUUUUUG [C97U G113C] has polymerase ribozyme fitness (log ratio) at least equal to -2.
Reply text: not met

Inquiry: I'd appreciate it if you could say whether GACCAAUCUGCCCUCAGAGCUCGAGAACAUCUUCGGAUGCAGAGGAGGCAGGCUUCGGUGGCGCGAUAGGGCCGACGUCCUCAACCUCCAAUGCAUCCCACCACAUGAUGAUGCCUGAAGAGCCUUGGUUUUUUG [C70G A74G] has polymerase ribozyme fitness (log ratio) at least equal to -2.
Reply text: not met

Inquiry: I'd appreciate it if you could say whether GACCAAUCUGCCCUCAGAGCUCGAGAACAUCUUCGGAUGCAGAGGAGGCAGGCUUCGGUGGCGCGAUAGCGCCAACGUCCUCAACCUCCAAUGCAUCCCACCACAUGAUGAUGCCUGAAGAGCAUUGGUAUUUUG [C124A U130A] has polymerase ribozyme fitness (log ratio) at least equal to -2.
Reply text: met

Inquiry: I'd appreciate it if you could say whether GACCAAUCUGCCGUCAGAGCUCGAGAACAUCUUCGGAUGCAGAGGAGGCAGGGUUCGGUGGCGCGAUAGCGCCAACGUCCUCAACCUCCAAUCCAUCCCAACACAUGAUGAUGCCUGAAGAGCCUUGGUUUUUUG [C13G C53G G93C C101A] has polymerase ribozyme fitness (log ratio) at least equal to -2.
Reply text: not met

Inquiry: I'd appreciate it if you could say whether GACCAAUCUGCCCUCAGAGCUCGAGAACAUCUUCGGAUGCAGAGGAGGCAGGCUUCGGUGGCGCGAUAGCGCCAACGUCCUCAACUUCCAAUGCAUCCCACCACAUGAUGAUGCCUGAAAAGCCUUGGUUUUUUG [C86U G120A] has polymerase ribozyme fitness (log ratio) at least equal to -2.
Reply text: met

Inquiry: I'd appreciate it if you could say whether GACCAAUCUGCUCUCAGAGCUCGAGAACAUCUUCGGAUGCAGAGGCGGCAGGGUUCGGUGGCGCGAUAGCGUGAACGUCCUCACCCUCCAAUGCCUCCCACCACAUGAUGAUGCCUGAAGAGCCUUGGUUUUUUG [C12U A46C C53G C72U C73G A84C A95C] has polymerase ribozyme fitness (log ratio) at least equal to -2.
Reply text: not met

Inquiry: I'd appreciate it if you could say whether GACCAAUCUGCCCUCAGAGCUCGAGAACAUCUUCGGAUUCAGAGGAGGAAGGCUUCGGUGGCGCGAUAGCUCCAACGUCCUCAACCUCCAAUGCAUCCCACCACAUGAUGAUGCCUGAAGAGCCUUAGUUUUUUG [G39U C49A G71U G127A] has polymerase ribozyme fitness (log ratio) at least equal to -2.
Reply text: not met

Inquiry: I'd appreciate it if you could say whether GACCAAUCUGCCCUCAGAGCUCGAGAACAUCUUCGGAUGCAGAGGAGGCAGGCUUCGGUGGCGCGAUAGCGCCAACCUCCUCAACCUCCAAUGCAUUCCACCACAUGAAGAUGCCUGAAGAGCCUUGGUUUUUUG [G77C C97U U109A] has polymerase ribozyme fitness (log ratio) at least equal to -2.
Reply text: not met

Inquiry: I'd appreciate it if you could say whether GACCAUUCUGCCCUCAGAGCUCGAGAACAUCUUCGGAUGCAGAGGAGGCAGGCUUGGGUGGCGCGAUAGCGCCAACGUCCUCAACCUCCAAUGCAUCCCACCACAUGAUGAUGCCUGAAGAGCCUUGGUUUUUUG [A6U C56G] has polymerase ribozyme fitness (log ratio) at least equal to -2.
Reply text: met

Inquiry: I'd appreciate it if you could say whether GACCAAUCUGCCCUCAGAGCUCGAGAACAUCUUCGGAUGCAGAGGAGGCAGGCUUCGGUGGCGCGAUAGCGCCAACGUCCUCAACCUCCAAUGAAACCCACCACAUGAUGAUGCCUGAAGAGCCUUGGUUUUUUG [C94A U96A] has polymerase ribozyme fitness (log ratio) at least equal to -2.
Reply text: not met

Inquiry: I'd appreciate it if you could say whether GACCAAUCUGCCCUCAGAGCUCGAGAACAUCUUCGGAUGCAGAGGAGGCAGGCUUCGGUGGCGCGAUAGCGCCAACGUCCUCAACCUCCAAUGCAUCCUACCACAUGAUGGUGCCUGAAGAGCCUUGGUUUUUUG [C99U A111G] has polymerase ribozyme fitness (log ratio) at least equal to -2.
Reply text: not met

Inquiry: I'd appreciate it if you could say whether GACCAAUCUGCCCUCAGAGCUCGAGAAUAUCUUCGGAUGCAGAGGAGGCAGGCUUCGGUGGCGCGAUAGCGCCAACGUCCUCAACCACCAAUGCAUCCCACCACAUGAUGAUGCCUGAAGAGCCUUGGUUUUUUG [C28U U87A] has polymerase ribozyme fitness (log ratio) at least equal to -2.
Reply text: not met

Inquiry: I'd appreciate it if you could say whether GACCAAUCUGCCCUCAGAGCUCUAGAACGUCUUCGGAUGCAGAGGAGGCAGGCUUCGGUGGCGCGAUAGAGCCAACGUCCUCUAACUCCAAUGCAUCCCACCACAUGAUGAUGCUUGAAGAGCCUUGGUUUUUUG [G23U A29G C70A A83U C85A C115U] has polymerase ribozyme fitness (log ratio) at least equal to -2.
Reply text: not met

Inquiry: I'd appreciate it if you could say whether GACCAAUCUGCCCUCAGAGCUCGAGAACAUCUUCGGAUGGAGACGAGGCAGGCUUCGGUGGCGCGAUAGCGCCUACGGCCUCAACCUCCAAUGCAUCCCACCACAUGAUGAUGCCUGAAGAGCCUUGGUUUUUUG [C40G G44C A74U U78G] has polymerase ribozyme fitness (log ratio) at least equal to -2.
Reply text: not met

Inquiry: I'd appreciate it if you could say whether GACCAAUCUGCCCUAAGAGCUCGAGAACAUCUUCGGAUGCAGAGGAGGCAGGCUUCGGUGGCGCGAUAGCGCCAACGUCCUCAACCUCCAAUGCAUCCCAGCACAUGAUGAUGCCUGAAGAGCGUUGGUUUUUUG [C15A C101G C124G] has polymerase ribozyme fitness (log ratio) at least equal to -2.
Reply text: met
